biological target: UniProt:P08684; experiment: Induction of CYP3A4 (unknown origin) by PXR-transactivation assay; assay type: ADME
Sequence (P08684 whole entry): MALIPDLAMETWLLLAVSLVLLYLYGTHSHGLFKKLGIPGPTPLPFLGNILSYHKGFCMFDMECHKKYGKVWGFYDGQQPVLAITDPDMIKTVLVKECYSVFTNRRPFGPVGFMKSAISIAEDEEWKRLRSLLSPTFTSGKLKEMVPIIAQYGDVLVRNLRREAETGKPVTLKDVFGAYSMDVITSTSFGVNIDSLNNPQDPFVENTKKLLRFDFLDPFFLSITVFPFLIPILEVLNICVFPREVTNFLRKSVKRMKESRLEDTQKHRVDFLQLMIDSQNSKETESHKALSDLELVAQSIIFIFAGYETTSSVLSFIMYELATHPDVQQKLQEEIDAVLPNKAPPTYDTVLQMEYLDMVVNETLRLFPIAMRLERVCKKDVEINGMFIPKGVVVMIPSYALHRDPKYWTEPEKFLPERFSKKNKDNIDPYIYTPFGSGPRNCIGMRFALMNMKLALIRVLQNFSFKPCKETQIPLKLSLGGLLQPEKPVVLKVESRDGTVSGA
pEC50: −log10 of the molar value.

>  <Structure notation>
[2H]C([2H])([2H])NC(=O)c1nnc(NC(=O)C2CC2)cc1Nc1cccc(-c2ncn(C)n2)c1OC

>  <pEC50>
< 4.40

$$$$

----------
experiment: AUC in C57BL/6 mouse at 10 mg/kg, po; assay type: ADME, organism-based; settings: in vivo
Recorded endpoint: AUC (µM·h)

>  <Structure notation>
[2H]C([2H])([2H])NC(=O)c1nnc(NC(=O)C2CC2)cc1Nc1cccc(-c2ncn(C)n2)c1OC

>  <Units label>
µM·h

>  <Measured value>
36.4

$$$$

----------
assay: Clearance in dog at 2 mg/kg, iv; format: ADME, organism-based, Canis lupus familiaris; settings: in vivo

>  <Compound>
[2H]C([2H])([2H])NC(=O)c1nnc(NC(=O)C2CC2)cc1Nc1cccc(-c2ncn(C)n2)c1OC [DEUCRAVACITINIB]

>  <clearance>
6.8 mL/min/kg

$$$$

----------
test: Metabolic stability in mouse liver microsomes assessed as compound remaining incubated for 10 mins; type: ADME, Microsome; details: read-out: Stability
One threshold, 70%, splits the recorded remaining at 10 min values: lower ones are satisfied, equal or higher ones are not satisfied.

>  <Structure notation>
CNC(=O)c1cnc(NC(=O)C2CC2)cc1Nc1cccc(-c2ncn(C)n2)c1OC

>  <Discrete label>
not satisfied

$$$$
>  <Structure notation>
CNC(=O)c1cnc(Nc2cc(C)c(F)cn2)cc1Nc1cccc(-c2ccn(C)n2)c1OC

>  <Discrete label>
satisfied

$$$$
>  <Structure notation>
CNC(=O)c1cnc(Nc2cc(C)nc(C)n2)cc1Nc1cccc(-c2ncn(C)n2)c1OC

>  <Discrete label>
not satisfied

$$$$
>  <Structure notation>
CNC(=O)c1cnc(Nc2ccc(C(F)(F)F)cn2)cc1Nc1cccc(-c2ncn(C)n2)c1OC

>  <Discrete label>
not satisfied

$$$$
>  <Structure notation>
CNC(=O)c1cnc(Nc2cc(C)c(F)cn2)cc1Nc1cccc(-c2nncn2C)c1OC

>  <Discrete label>
satisfied

$$$$

----------
experiment: Oral bioavailability in C57BL/6 mouse at 10 mg/kg; format: ADME, organism-based; details: in vivo
Recorded endpoint: bioavailability

>  <Structure notation>
[2H]C([2H])([2H])NC(=O)c1nnc(NC(=O)C2CC2)cc1Nc1cccc(-c2ncn(C)n2)c1OC

>  <Measured value>
122%

$$$$

----------
target: Non-receptor tyrosine-protein kinase TYK2 (Mus musculus); experiment: Inhibition of TYK2 in mouse whole blood assessed as decrease in IFNalpha-induced STAT1 phosphorylation preincubated for 1 hr followed by stimulation with IFN-alpha for 15 mins by fluorescence analysis
Sequence (Q9R117 whole entry): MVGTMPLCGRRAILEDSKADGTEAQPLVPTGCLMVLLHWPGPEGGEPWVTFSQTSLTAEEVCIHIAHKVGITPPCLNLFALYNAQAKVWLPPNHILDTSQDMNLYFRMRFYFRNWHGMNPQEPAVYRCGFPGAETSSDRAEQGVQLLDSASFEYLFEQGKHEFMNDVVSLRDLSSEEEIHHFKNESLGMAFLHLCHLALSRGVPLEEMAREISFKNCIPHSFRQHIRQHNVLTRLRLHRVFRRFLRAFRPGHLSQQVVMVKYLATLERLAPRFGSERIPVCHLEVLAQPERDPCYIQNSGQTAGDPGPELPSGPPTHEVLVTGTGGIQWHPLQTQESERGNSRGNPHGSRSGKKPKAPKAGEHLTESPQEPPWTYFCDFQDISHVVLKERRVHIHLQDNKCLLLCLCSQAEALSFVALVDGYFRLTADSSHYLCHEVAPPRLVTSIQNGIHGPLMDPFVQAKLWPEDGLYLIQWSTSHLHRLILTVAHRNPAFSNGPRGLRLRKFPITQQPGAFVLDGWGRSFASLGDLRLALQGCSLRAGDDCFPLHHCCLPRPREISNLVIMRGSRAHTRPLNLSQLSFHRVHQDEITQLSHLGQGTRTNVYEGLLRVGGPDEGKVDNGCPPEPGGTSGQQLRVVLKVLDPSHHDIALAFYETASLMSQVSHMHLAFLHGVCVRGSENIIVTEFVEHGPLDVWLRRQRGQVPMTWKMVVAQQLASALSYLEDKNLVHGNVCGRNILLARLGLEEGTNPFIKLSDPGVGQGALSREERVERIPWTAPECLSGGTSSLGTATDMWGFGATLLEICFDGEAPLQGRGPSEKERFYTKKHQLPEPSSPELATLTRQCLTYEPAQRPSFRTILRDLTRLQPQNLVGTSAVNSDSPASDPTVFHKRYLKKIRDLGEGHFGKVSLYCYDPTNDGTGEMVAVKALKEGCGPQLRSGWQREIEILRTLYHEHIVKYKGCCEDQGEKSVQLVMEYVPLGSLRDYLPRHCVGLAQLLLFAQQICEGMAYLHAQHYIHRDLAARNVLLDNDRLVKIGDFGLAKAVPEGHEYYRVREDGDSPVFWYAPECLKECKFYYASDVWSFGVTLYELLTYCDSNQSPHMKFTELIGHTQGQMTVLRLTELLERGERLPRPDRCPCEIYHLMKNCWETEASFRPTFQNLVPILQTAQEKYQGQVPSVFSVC
pIC50: −log10 of the molar value.
Recorded endpoint: pIC50

>  <Structure notation>
CNC(=O)c1cnc(Nc2cc(C)c(F)cn2)cc1Nc1cccc(-c2n[nH]c(C)n2)c1OC

>  <Measured value>
6.49

$$$$
>  <Structure notation>
CNC(=O)c1cnc(Nc2ccc(C(F)(F)F)cn2)cc1Nc1cccc(-c2ncn(C)n2)c1OC

>  <Measured value>
6.15

$$$$
>  <Structure notation>
CNC(=O)c1cnc(Nc2cc(C)nc(C)n2)cc1Nc1cccc(-c2ncn(C)n2)c1OC

>  <Measured value>
6.14

$$$$
>  <Structure notation>
CNC(=O)c1cnc(NC(=O)C2CC2)cc1Nc1cccc(-c2ncn(C)n2)c1OC

>  <Measured value>
6.48

$$$$
>  <Structure notation>
CNC(=O)c1cnc(Nc2cc(C)c(F)cn2)cc1Nc1cccc(-c2nnco2)c1OC

>  <Measured value>
6.28

$$$$
>  <Structure notation>
CNC(=O)c1cnc(Nc2ccc(C#N)cn2)cc1Nc1cccc(-c2ncn(C)n2)c1OC

>  <Measured value>
6.59

$$$$
>  <Structure notation>
CNC(=O)c1cnc(Nc2cc(C)c(F)cn2)cc1Nc1cccc(-c2nnc(C)o2)c1OC

>  <Measured value>
6.24

$$$$
>  <Structure notation>
CNC(=O)c1cnc(Nc2cc(C)c(F)cn2)cc1Nc1cccc(-c2ncnn2C)c1OC

>  <Measured value>
6.42

$$$$
>  <Structure notation>
CNC(=O)c1cnc(Nc2cc(C)c(F)cn2)cc1Nc1cccc(-c2ccn(C)n2)c1OC

>  <Measured value>
6.37

$$$$
>  <Structure notation>
CNC(=O)c1cnc(Nc2cc(C)c(F)cn2)cc1Nc1cccc(-c2ncn(C)n2)c1OC

>  <Measured value>
6.89

$$$$
>  <Structure notation>
CNC(=O)c1cnc(Nc2cc(C)c(F)cn2)cc1Nc1cccc(-c2nc[nH]n2)c1OC

>  <Measured value>
6.51

$$$$
>  <Structure notation>
[2H]C([2H])([2H])NC(=O)c1cnc(NC(=O)C2CC2)cc1Nc1cccc(-c2ncn(C)n2)c1OC

>  <Measured value>
7.00

$$$$

----------
assay: Metabolic stability in mouse liver microsomes assessed as compound remaining incubated for 10 mins; format: ADME, Microsome; conditions: read-out: Stability
Recorded endpoint: remaining at 10 min

>  <Structure notation>
CNC(=O)c1cnc(Nc2cc(C)c(F)cn2)cc1Nc1cccc(-c2nnc(C)o2)c1OC

>  <Measured value>
70%

$$$$
>  <Structure notation>
CNC(=O)c1cnc(Nc2ccc(C#N)cn2)cc1Nc1cccc(-c2ncn(C)n2)c1OC

>  <Measured value>
85%

$$$$
>  <Structure notation>
CNC(=O)c1cnc(Nc2cc(C)c(F)cn2)cc1Nc1cccc(-c2ccnn2C)c1OC

>  <Measured value>
15%

$$$$
>  <Structure notation>
CNC(=O)c1cnc(Nc2cc(C)c(F)cn2)cc1Nc1cccc(-c2nnco2)c1OC

>  <Measured value>
46%

$$$$
>  <Structure notation>
[2H]C([2H])([2H])NC(=O)c1cnc(NC(=O)C2CC2)cc1Nc1cccc(-c2ncn(C)n2)c1OC

>  <Measured value>
89%

$$$$
>  <Structure notation>
CNC(=O)c1cnc(Nc2cc(C)c(F)cn2)cc1Nc1cccc(-c2ncnn2C)c1OC

>  <Measured value>
9%

$$$$
>  <Structure notation>
[2H]C([2H])([2H])NC(=O)c1nnc(NC(=O)C2CC2)cc1Nc1cccc(-c2ncn(C)n2)c1OC

>  <Measured value>
89%

$$$$
>  <Structure notation>
CNC(=O)c1cnc(Nc2cc(C)c(F)cn2)cc1Nc1cccc(-c2ncn(C)n2)c1OC

>  <Measured value>
80%

$$$$
>  <Structure notation>
CNC(=O)c1cnc(Nc2cc(C)c(F)cn2)cc1Nc1cccc(-c2nc[nH]n2)c1OC

>  <Measured value>
51%

$$$$
>  <Structure notation>
CNC(=O)c1cnc(Nc2cc(C)c(F)cn2)cc1Nc1cccc(-c2n[nH]c(C)n2)c1OC

>  <Measured value>
63%

$$$$

----------
assay: Metabolic stability in cynomolgus monkey liver microsomes assessed as half life; type: ADME, Macaca fascicularis, Microsome
Recorded endpoint: half-life

>  <Compound>
[2H]C([2H])([2H])NC(=O)c1nnc(NC(=O)C2CC2)cc1Nc1cccc(-c2ncn(C)n2)c1OC [DEUCRAVACITINIB]

>  <Measured value>
> 2 h

$$$$

----------
assay: Metabolic stability in mouse liver microsomes assessed as half life; format: ADME, Microsome

>  <Structure notation>
[2H]C([2H])([2H])NC(=O)c1cnc(NC(=O)C2CC2)cc1Nc1cccc(-c2ncn(C)n2)c1OC

>  <half-life>
> 2 h

$$$$
>  <Structure notation>
[2H]C([2H])([2H])NC(=O)c1nnc(NC(=O)C2CC2)cc1Nc1cccc(-c2ncn(C)n2)c1OC

>  <half-life>
> 2 h

$$$$

----------
experiment: AUC in cynomolgus monkey at 10 mg/kg, po; format: ADME, organism-based, Macaca fascicularis; settings: in vivo

>  <Structure notation>
[2H]C([2H])([2H])NC(=O)c1nnc(NC(=O)C2CC2)cc1Nc1cccc(-c2ncn(C)n2)c1OC

>  <Units label>
µM·h

>  <AUC>
75.7

$$$$

----------
assay: Protein binding in human assessed as unbound fraction; assay type: ADME

>  <Structure notation>
[2H]C([2H])([2H])NC(=O)c1nnc(NC(=O)C2CC2)cc1Nc1cccc(-c2ncn(C)n2)c1OC

>  <fraction unbound>
0.13

$$$$

----------
assay: Cmax in C57BL/6 mouse at 10 mg/kg, po; format: ADME, organism-based; set-up: dose 10 mg/kg, route oral; conditions: in vivo

>  <Structure notation>
[2H]C([2H])([2H])NC(=O)c1nnc(NC(=O)C2CC2)cc1Nc1cccc(-c2ncn(C)n2)c1OC

>  <Units label>
µM

>  <Cmax>
7.5

$$$$

----------
test: MRT in cynomolgus monkey at 2 mg/kg, iv; assay type: ADME, organism-based, Macaca fascicularis; conditions: in vivo

>  <Structure notation>
[2H]C([2H])([2H])NC(=O)c1nnc(NC(=O)C2CC2)cc1Nc1cccc(-c2ncn(C)n2)c1OC

>  <MRT>
7 h

$$$$
